# Tested on: 494315-158-R-J1-PDC complex spheroid growth, percent test/control;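 note: compound exposure lasted seven days after spheroids formed for three days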
# Method: Anticancer human tumor 494315-158-R-J1-PDC patient-derived soft tissue sarcoma cell line growth inhibition [Asc]
# Settings: second compound 1 µM; first compound 0.03 µM; hits give low values
Reported Metric: viability, T/C (%)
Write down the numeric answer in % and omit the unit.

Which viability, T/C value belongs to NC(=O)C(=Cn1cnc(-c2cc(C(F)(F)F)cc(C(F)(F)F)c2)n1)c1cncnc1 + CNC(C)C(=O)NC1CN(S(=O)(=O)c2cccc(S(=O)(=O)N3CCC4CCC(C(=O)NC(c5ccccc5)c5ccccc5)N4C(=O)C(NC(=O)C(C)NC)C3)c2)CCC2CCC(C(=O)NC(c3ccccc3)c3ccccc3)N2C1=O ? 35.8

Same lookup for CCN1C(C(=O)NC23CCC(C(=O)O)(CC2)CC3)C(c2cccc(Cl)c2F)C2(C(=O)Nc3cc(Cl)ccc32)C12CCCCC2 (centres undefined) + Cc1c(S(C)(=O)=O)c(-c2cc(F)cc(N3CCN(c4ccc(NS(=O)(=O)c5ccc(NC(CCN6CCC(C(=O)OCCCP(=O)(O)O)CC6)CSc6ccccc6)c(S(=O)(=O)C(F)(F)F)c5)cc4)CC3)c2)c(-c2ccc(Cl)cc2)n1C(C)C , please. 66.3

Here is the next molecule: Cc1nc(N2CCC3(CC2)COC(C)C3N)c(CO)nc1Sc1ccnc(N)c1Cl (centres undefined) + Cc1c(S(C)(=O)=O)c(-c2cc(F)cc(N3CCN(c4ccc(NS(=O)(=O)c5ccc(NC(CCN6CCC(C(=O)OCCCP(=O)(O)O)CC6)CSc6ccccc6)c(S(=O)(=O)C(F)(F)F)c5)cc4)CC3)c2)c(-c2ccc(Cl)cc2)n1C(C)C 71

And then Cc1nc(N2CCC3(CC2)COC(C)C3N)c(CO)nc1Sc1ccnc(N)c1Cl (centres undefined) + CNC(C)C(=O)NC1CN(S(=O)(=O)c2cccc(S(=O)(=O)N3CCC4CCC(C(=O)NC(c5ccccc5)c5ccccc5)N4C(=O)C(NC(=O)C(C)NC)C3)c2)CCC2CCC(C(=O)NC(c3ccccc3)c3ccccc3)N2C1=O , what is it? 44.2
